experiment: chemical genetic growth profiling, strain panel (AID 1159580);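 further: tested at 20 µM; growth read once vehicle control cultures reached saturation at 30 °C; lower values mean less growth of the strain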; details: S. cerevisiae deletion strains, growth OD, locus YDR388W
The whole screen tested about 5,500 compounds, of which about 2,000 (36%) were called active. About 18% were inconclusive and are not listed. No stated cut-off is given here; in the data, active means normalized growth mostly below about 0.91 (no sharp cut-off); inconclusive means no clear call, values can overlap the other calls; inactive means mostly above about 0.92. The list shows a part of the results.
API: response.call in Y (active), N (inactive)

Look over these answered cases.
CCCCOC(=O)c1ccc(N)cc1    Y
CC1(C)O[C@@H]2CC3C4CCC5=CC(=O)CCC5(C)C4(F)C(O)CC3(C)[C@]2(C(=O)CCl)O1 (stereo partly drawn)    N
CCCCN(CCCC)CCCOC(=O)c1ccc(N)cc1    N
CC(C)NC[C@H](O)COc1cccc2ccccc12    N
C[C@@H]1C(=O)OC2[C@H](O)C34[C@@H]5OC(=O)[C@@]3(O[C@@H]3OC(=O)[C@H](O)[C@@]34[C@H](C(C)(C)C)[C@H]5O)[C@]21O (stereo partly drawn)    N
CCC(C)c1cnc(CC(C)C)c(=O)n1O (stereo not drawn)    N

Req: Which outcome did this test record for the molecule O=C1OC(c2ccc(O)cc2)(c2ccc(O)cc2)c2ccccc21 ?
Resp: N

Req: What about O=C(O)c1ccccc1-c1c2cc(Br)c(=O)cc-2oc2[c]([Hg])c(O)c(Br)cc12 ?
Resp: Y

Req: What about COc1cc2c(cc1OC)C1Cc3ccc(OC)c(OC)c3CN1CC2 (stereo not drawn) ?
Resp: N

Req: What about C#CCCCCCCCCCCCC(=O)CC(O)COC(C)=O (stereo not drawn) ?
Resp: N
